Reported IC50 values are given for each entry in this list.
Tested on: C. elegans of the Bristol N2 strain
assay comment: Automated feeding assay (bead ingestion, pharyngeal pumping)
Format: in vivo, Caenorhabditis elegans
experimental context: Caenorhabditis elegans; in the presence of 1 mM serotonin; estimated from log dose response curves (FIG. 2); read-out: IC50 (inhibitory concentration 50%) for bead ingestion
endpoint name: IC50 (µM)

molecule: CN1[C@@H]2CC[C@H]1CC(OC(=O)c1cc(Cl)cc(Cl)c1)C2 (stereo partly drawn) [MDL 72222]
quantitative result: 40
--
molecule: Cc1nccn1CC1CCc2c(c3ccccc3n2C)C1=O (stereo not drawn) [ondansetron]
quantitative result: 562
--
molecule: CN1[C@@H]2CC[C@H]1CC(OC(=O)c1c[nH]c3ccccc13)C2 (stereo partly drawn) [DCP-45240 (20)]
quantitative result: 316
